Data credit: paper PMC7498313

# target-under-test: T1, Sis10b M20E/L24E/L27E/F60E (Sulfolobus islandicus REY15A, UniProt F0NHH1 1-97, M20E;L24E;L27E;F60E)
# T1 sequence: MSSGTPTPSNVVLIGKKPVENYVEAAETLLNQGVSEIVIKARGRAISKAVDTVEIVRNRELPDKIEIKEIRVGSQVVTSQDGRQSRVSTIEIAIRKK
# test-summary: EMSA; 55°C; EMSA: 20 mM HEPES-NaOH pH 7.0, 1 mM DTT, 100 ug/ml BSA, 6% glycerol, 30 min at 25, 37 or 55°C; gel in 0.5x TBE at the same temperature
# settings: protein: recombinant; tags: none; chain copies: 2; label: 5' 32P on top strand; blunt
pKd: −log10 of the molar value.
measurement-name: pKd

| binder | observed-result |
| --- | --- |
| 44-bp dsRNA (dsRNA) RNA 1: UGACUUCCGCGCGUGAGCUCGAUUCCACAUACCCUAAAUCGCUC RNA 2: GAGCGAUUUAGGGUAUGUGGAAUCGAGCUCACGCGCGGAAGUCA | ~7.08 |
